System: Colon cancer organoid
Assay: Identification of compartment-specific drug sensitivities in O20 CRC organoid-stroma F20 CAF co-cultures. Organoid is transduced with Lucferase2-P2A-EGFP lentivirus, fibroblast with Renilla-dsRed lentivirus. Dual-Glo Luciferase assay is used to report viability data.
Type: functional, Homo sapiens
Parameters: dose or concentration left out as unconfirmed
Details: Transduced with Renilla-dsRed lentivirus
value.type: Cell Viability (%)
Response body: numeric value in %, unit text excluded.

Task item: Given "COc1cc(C(=O)N2CC[C@@H](O)[C@@H](N)C2)cc2nc(-c3cc4ccccc4n3CC3CC3)n(C)c12.Cl" , state its recorded Cell Viability.
Reply: 114.018

###

Form field: Cell Viability (one value per entry).
System: Colon cancer organoid
Test: Identification of compartment-specific drug sensitivities in O06 CRC organoid-stroma F06 CAF co-cultures. Organoid is transduced with Lucferase2-P2A-EGFP lentivirus, fibroblast with Renilla-dsRed lentivirus. Dual-Glo Luciferase assay is used to report viability data.
Assay type: functional, Homo sapiens
Set-up: dose or concentration left out as unconfirmed
Settings: Transduced with Renilla-dsRed lentivirus
Response body: numeric value in %, unit text excluded.

Study these solved cases before continuing.
> print(dat)
                                   compound  quantity.unit  measured.result
1  CN(C)C(=O)Cn1cc(-c2ccc(-c3nnc4ccccn34)cc2)cn1              %          110.192
2  COc1ccc2c(c1)O[C@H](c1ccc(OC)c(OC)c1)C[C@@H]2NC(=O)C1(c2ccc3c(c2)OC(F)(F)O3)CC1              %          88.6658
3  O=C(NC[C@@H]1[C@H]2CN(C(=O)OCc3cc(C(F)(F)F)cc(C(F)(F)F)c3)C[C@@H]12)c1ccc2[nH]nnc2c1              %          98.3684
4  COc1ccccc1C(=O)Nc1cc2c(cc1N1CCNCC1C)n(C)c(=O)n2C (stereo not drawn)              %          138.916
5  COc1cc2c(cc1NS(=O)(=O)c1ccc(Br)cc1C)n(C)c(=O)n2C              %          146.987
6  O=C(Nc1cccnn1)N1CCC(=Cc2cccc(Oc3ccc(C(F)(F)F)cn3)c2)CC1              %          125.543
7  Nc1ncnc2c1ccn2[C@@H]1O[C@H]([C@H](O)c2ccccc2)[C@@H](O)[C@H]1O              %          108.338

# context switch: different compound, same Cell Viability
Task item: Given "Cc1c(C(=O)O)cc(-c2ccc(C3CCNCC3)cc2)c2ccc(-c3ccc(C(F)(F)F)cc3)cc12.Cl" , state its recorded Cell Viability.
Reply: 93.9723

###

Test system: Colon cancer organoid
Experiment: Identification of compartment-specific drug sensitivities in O06 CRC organoid-stroma F06 CAF co-cultures. Organoid is transduced with Lucferase2-P2A-EGFP lentivirus, fibroblast with Renilla-dsRed lentivirus. Dual-Glo Luciferase assay is used to report viability data.
Format: functional, Homo sapiens
Set-up: dose or concentration left out as unconfirmed
Details: Transduced with Renilla-dsRed lentivirus
value.type: Cell Viability (%)
Response body: numeric value in %, unit text excluded.

Study these solved cases before continuing.
> print(dat)
                                   compound      value.type  measured.result
1  Cn1cc(Cl)c2c(Oc3c(F)cc(Nc4cc(Cl)nc(N)n4)cc3F)ccnc21  Cell Viability          149.241
2     COc1cc2c(cc1OCCCN1CCCC1)N=C(N)C21CCC1  Cell Viability           83.704

Task item: Given "COc1ncc(-c2ccc3nccc(-c4ccnnc4)c3c2)cc1NS(=O)(=O)c1ccc(F)cc1F" , state its recorded Cell Viability.
Reply: 34.7423

Task item: Given "C[C@@H](c1cccc(CN)c1)n1cc(Cl)cc(C(N)=O)c1=N.Cl" , state its recorded Cell Viability.
Reply: 114.984

Task item: Given "Cc1ccccc1Oc1cc(-n2c(=O)cc(C(F)(F)F)[nH]c2=O)c2ccccc2c1Cl" , state its recorded Cell Viability.
Reply: 153.89

Task item: Given "CCS(=O)(=O)Nc1ccc(Oc2ccc(F)cc2F)c(-c2cn(C)c(=O)c3[nH]ccc23)c1" , state its recorded Cell Viability.
Reply: 272.686

Task item: Given Cn1c(-c2csc(C3CCN(CC4=NC5N=CC=CC5N4)CC3)n2)nc2ccccc21 (stereo not given) , state its recorded Cell Viability.
Reply: 49.5381
